TARGET: L858R/T790M/C797S triple mutant EGFR (Homo sapiens, UniProt P00533, C797S/L858R/T790M)
Construct: purchased Signalchem
Sequence (P00533 25-1210 T790M/C797S/L858R): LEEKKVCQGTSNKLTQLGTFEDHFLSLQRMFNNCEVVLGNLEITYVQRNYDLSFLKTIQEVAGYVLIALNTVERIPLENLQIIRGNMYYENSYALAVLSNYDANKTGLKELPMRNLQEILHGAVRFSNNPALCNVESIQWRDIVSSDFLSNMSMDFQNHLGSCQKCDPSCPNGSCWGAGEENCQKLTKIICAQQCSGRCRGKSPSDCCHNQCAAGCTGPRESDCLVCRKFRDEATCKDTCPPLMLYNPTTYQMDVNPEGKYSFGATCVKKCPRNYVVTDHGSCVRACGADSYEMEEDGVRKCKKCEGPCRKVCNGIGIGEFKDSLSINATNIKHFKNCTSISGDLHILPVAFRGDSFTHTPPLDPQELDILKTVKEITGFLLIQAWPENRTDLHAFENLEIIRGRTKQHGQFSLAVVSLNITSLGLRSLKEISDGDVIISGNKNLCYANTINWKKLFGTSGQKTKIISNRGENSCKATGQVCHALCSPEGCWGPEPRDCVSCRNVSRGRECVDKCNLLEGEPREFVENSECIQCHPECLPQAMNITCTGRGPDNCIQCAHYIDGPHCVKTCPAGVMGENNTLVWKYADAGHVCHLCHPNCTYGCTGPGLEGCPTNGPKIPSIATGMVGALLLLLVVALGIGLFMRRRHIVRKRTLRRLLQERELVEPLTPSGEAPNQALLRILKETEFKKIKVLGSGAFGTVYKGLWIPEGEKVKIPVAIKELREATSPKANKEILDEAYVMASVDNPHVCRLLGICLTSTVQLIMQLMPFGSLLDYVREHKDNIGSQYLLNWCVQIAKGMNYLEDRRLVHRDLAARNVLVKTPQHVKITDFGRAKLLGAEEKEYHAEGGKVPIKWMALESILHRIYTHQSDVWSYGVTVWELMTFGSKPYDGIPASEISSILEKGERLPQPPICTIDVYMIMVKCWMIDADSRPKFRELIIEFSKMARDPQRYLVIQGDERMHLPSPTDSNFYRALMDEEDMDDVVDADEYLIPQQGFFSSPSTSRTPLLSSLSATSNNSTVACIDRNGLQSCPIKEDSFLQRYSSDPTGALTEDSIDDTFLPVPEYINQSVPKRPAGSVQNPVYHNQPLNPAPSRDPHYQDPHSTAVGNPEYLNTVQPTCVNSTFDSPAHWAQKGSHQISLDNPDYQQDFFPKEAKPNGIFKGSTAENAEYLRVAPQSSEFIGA
TEST SUMMARY: Enzymology experiment in vitro (HTRF/FRET kinase activity), L858R/T790M/C797S triple mutant EGFR
Format: biochemical
COND: HTRF KinEASE-TK, read-out: EGFR (L858R/T790M/C797S) IC50
MEASURED QUANTITY: IC50 (pM)
# number only, unit pM dropped from output

`COc1cc(N2CCOCC2)c(-c2cnn(C)c2)cc1Nc1ncc(F)c(Nc2ccc3nccnc3c2P(C)(C)=O)n1` on L858R/T790M/C797S triple mutant EGFR (Homo sapiens, UniProt P00533, C797S/L858R/T790M) gives IC50 = 340

`Cn1cc(-c2cc(Nc3ncc(Br)c(Nc4ccc5nccnc5c4P(C)(C)=O)n3)c(OCC(F)(F)F)nc2N2CCOCC2)cn1` on L858R/T790M/C797S triple mutant EGFR (Homo sapiens, UniProt P00533, C797S/L858R/T790M) gives IC50 = 270

COc1cc(N2CC(C)OC(C)C2)c(-c2cnn(C)c2)cc1Nc1ncc(Br)c(Nc2ccc3nccnc3c2P(C)(C)=O)n1 (single isomer, unassigned) [155a] on L858R/T790M/C797S triple mutant EGFR (Homo sapiens, UniProt P00533, C797S/L858R/T790M) gives IC50 = 670

`[2H]C([2H])([2H])OCCN1CCN(c2cc(OC)c(Nc3ncc(Br)c(Nc4ccc5nccnc5c4P(C)(C)=O)n3)cc2-c2cnn(C)c2)CC1` on L858R/T790M/C797S triple mutant EGFR (Homo sapiens, UniProt P00533, C797S/L858R/T790M) gives IC50 = 160

`COc1cc(N2CCOCC2)c(-c2cnn(C)c2)cc1Nc1ncc(Br)c(Nc2cc(C)c3nccnc3c2P(C)(C)=O)n1` on L858R/T790M/C797S triple mutant EGFR (Homo sapiens, UniProt P00533, C797S/L858R/T790M) gives IC50 = 260

----------
TARGET: L858R/T790M/C797S triple mutant EGFR (Homo sapiens, UniProt P00533, C797S/L858R/T790M)
Construct: purchased Signalchem
TEST SUMMARY: Enzymology experiment in vitro (HTRF/FRET kinase activity), L858R/T790M/C797S triple mutant EGFR
Assay type: biochemical
COND: HTRF KinEASE-TK, read-out: EGFR (L858R/T790M/C797S) IC50
MEASURED QUANTITY: IC50 (nM)
# number only, unit nM dropped from output

Recorded results for 3 molecules are shown here.
MOLECULE | TARGET | IC50, nM
COc1cc(N2CCOCC2)c(-c2cnoc2)cc1Nc1ncc(Br)c(Nc2ccc3nccnc3c2P(C)(C)=O)n1 [compound 19] | L858R/T790M/C797S triple mutant EGFR (Homo sapiens, UniProt P00533, C797S/L858R/T790M) | 0.17
COc1cc(N2CCNC(=O)C2)c(-c2cnn(C)c2)cc1Nc1ncc(Br)c(Nc2ccc3nccnc3c2P(C)(C)=O)n1 [compound 105] | L858R/T790M/C797S triple mutant EGFR (Homo sapiens, UniProt P00533, C797S/L858R/T790M) | 0.16
COc1cc(N2CCC(N3CCN(C)CC3)C(F)C2)c(-c2cnn(C)c2)cc1Nc1ncc(Br)c(Nc2ccc3nccnc3c2P(C)(C)=O)n1 (stereo not drawn) [compound 189] | L858R/T790M/C797S triple mutant EGFR (Homo sapiens, UniProt P00533, C797S/L858R/T790M) | 0.16

IC50 for COc1cc(N2CCC3(CCN(CCF)CC3)CC2)c(-c2cnn(C)c2)cc1Nc1ncc(Cl)c(Nc2ccc3nccnc3c2P(C)(C)=O)n1 [compound 233] is 0.26

IC50 for COCCN(C)c1cc(OC)c(Nc2ncc(Br)c(Nc3ccc4nccnc4c3P(C)(C)=O)n2)cc1-c1cnn(C)c1 [compound 28] is 0.13

IC50 for COc1cc(N2CCN(CC3CC3)CC2)c(-c2cnn(C)c2)cc1Nc1ncc(Br)c(Nc2ccc3nccnc3c2P(C)(C)=O)n1 [compound 157] is 0.33

IC50 for COc1cc(N2CCN(CCC(F)F)CC2)c(-c2cnn(C)c2)cc1Nc1ncc(Br)c(Nc2ccc3nccnc3c2P(C)(C)=O)n1 [compound 222] is 0.3

IC50 for COc1cc(N2CCC3(CCN(CC4(F)CC4)CC3)CC2)c(-c2cnn(C)c2)cc1Nc1ncc(Br)c(Nc2ccc3nccnc3c2P(C)(C)=O)n1 [compound 242] is 0.4

IC50 for COc1cc(N2CCOC[C@H]2C)c(-c2cnn(C)c2)cc1Nc1ncc(Br)c(Nc2ccc3nccnc3c2P(C)(C)=O)n1 [compound 104] is 0.95
